All figures here come from paper PMC3928314.

- protocol: Skin compound concentration after 14 days oral dosing
- Format: in vivo, mouse
- assay context: male, C57BL/6, mouse, skin/plasma, po, DIO mice, 14 days oral dosing; read-out: Skin/Plasma Ratio (skin to plasma concentration ratio)
experimental endpoint: Kp

compound="CC(C)(C)OC(=O)NC1(C(=O)N[C@@H]2CC(=O)c3ccccc3N(Cc3cc(C(F)(F)F)cc(C(F)(F)F)c3)C2=O)CC1 [Cpd2]" experimental_endpoint=Kp result=17.5

----------
Each record here notes measured fraction unbound at 4 h, 5 µM.
- protocol: Unbound fraction (Fu) in plasma by equilibrium dialysis
- Assay type: in vitro ADME
- assay context: pH 7.4, mouse plasma, equilibrium dialysis 4 hr 37°C
experimental endpoint: fraction unbound at 4 h, 5 µM

smiles_code=CC(C)(C)OC(=O)NC1(C(=O)N[C@@H]2CC(=O)c3ccccc3N(Cc3cc(C(F)(F)F)cc(C(F)(F)F)c3)C2=O)CC1 experimental_endpoint="fraction unbound at 4 h, 5 µM" result=0.01
smiles_code=CC(C)(O)C[C@H]1CC[C@H](c2ccc(N3CCOc4ncnc(N)c4C3=O)cc2)CC1 experimental_endpoint="fraction unbound at 4 h, 5 µM" result=0.112
smiles_code=O=C(Nc1ccc([C@H]2CC[C@H](C(=O)O)CC2)cc1F)c1nnc(Nc2ccc(F)c(F)c2)o1 experimental_endpoint="fraction unbound at 4 h, 5 µM" result=0.063
